System: E. coli ATCC 25922
Format: cell-based, Escherichia coli
Experimental Setup: ATCC 25922, 16 h
Description: The antimicrobial activities of the peptides were investigated against the following bacteria: E. faecalis ATCC 29212, S. epidermidis ATCC 12228, S. aureus ATCC 29213, E. coli ATCC 25922, S. typhimurium […] and S. Pullorum […]. The MICs of the peptides were determined using a modified standard microtiter dilution method as described previously[29],[38]. Briefly, the microbial strains were cultured in MHB at 37 °C to reach mid-log phase and then diluted to 0.5-1×10^6 CFU/ml. […]
Residues, ends and D or L forms follow the SMILES beside them.
Kindly state MIC (μM) Gram-negative E. coli 12228 for each of the entries shown.

// below: answered compounds
>  <Compound>
CC(C)C[C@H](NC(=O)[C@H](CCCNC(=N)N)NC(=O)CNC(=O)CNC(=O)[C@@H](N)CCCNC(=N)N)C(=O)N[C@H]1CSSC[C@@H](C(=O)N[C@H](C(=O)NCC(=O)N[C@@H](CCCNC(=N)N)C(N)=O)C(C)C)NC(=O)[C@H](C(C)C)NC(=O)[C@@H]2CSSC[C@H](NC(=O)[C@H](Cc3ccc(O)cc3)NC1=O)C(=O)N[C@@H](CCCNC(=N)N)C(=O)N[C@@H](CCCNC(=N)N)C(=O)N[C@@H](CCCNC(=N)N)C(=O)N[C@@H](Cc1ccccc1)C(=O)N2 [PG-1, reference compound]

>  <MIC (μM) Gram-negative E. coli 12228>
2 µM

$$$$
>  <Compound>
CC(C)C[C@H](NC(=O)[C@@H](NC(=O)[C@@H](NC(=O)[C@@H](N)CC(C)C)C(C)C)[C@@H](C)O)C(=O)N[C@H](C(=O)N[C@@H](Cc1ccccc1)C(=O)N[C@H](C(=O)O)C(C)C)C(C)C [cCF10, reference compound] (H-LVTLVFV-OH)

>  <MIC (μM) Gram-negative E. coli 12228>
>128 µM

$$$$
>  <Compound>
NCCCC[C@H](NC(=O)CNC(=O)[C@H](CC(N)=O)NC(=O)[C@H](CCCCN)NC(=O)[C@H](Cc1c[nH]c2ccccc12)NC(=O)[C@H](CCCCN)NC(=O)[C@H](Cc1c[nH]c2ccccc12)NC(=O)[C@H](CCCCN)NC(=O)[C@@H](N)Cc1c[nH]c2ccccc12)C(=O)N[C@@H](Cc1c[nH]c2ccccc12)C(=O)N[C@@H](CCCCN)C(=O)N[C@@H](Cc1c[nH]c2ccccc12)C(=O)N[C@@H](CCCCN)C(=O)N[C@@H](Cc1c[nH]c2ccccc12)C(=O)O [C6] (H-WKWKWKNGKWKWKW-OH)

>  <MIC (μM) Gram-negative E. coli 12228>
2 µM

$$$$
>  <Compound>
NCCCC[C@H](NC(=O)CNC(=O)[C@H](CC(N)=O)NC(=O)[C@H](CCC(=O)O)NC(=O)[C@H](Cc1c[nH]c2ccccc12)NC(=O)[C@H](CCCCN)NC(=O)[C@H](Cc1c[nH]c2ccccc12)NC(=O)[C@H](CCCCN)NC(=O)[C@@H](N)Cc1c[nH]c2ccccc12)C(=O)N[C@@H](Cc1c[nH]c2ccccc12)C(=O)N[C@@H](CCCCN)C(=O)N[C@@H](Cc1c[nH]c2ccccc12)C(=O)N[C@@H](CCC(N)=O)C(=O)N[C@@H](Cc1c[nH]c2ccccc12)C(=O)O [C3] (H-WKWKWENGKWKWQW-OH)

>  <MIC (μM) Gram-negative E. coli 12228>
32 µM

$$$$

Next compound, MIC (μM) Gram-negative E. coli 12228 to be filled in.
# compound NCCCC[C@H](NC(=O)CNC(=O)[C@H](CC(N)=O)NC(=O)[C@H](CCC(=O)O)NC(=O)[C@H](Cc1c[nH]c2ccccc12)NC(=O)[C@H](CCCCN)NC(=O)[C@H](Cc1c[nH]c2ccccc12)NC(=O)[C@H](CCCCN)NC(=O)[C@@H](N)Cc1c[nH]c2ccccc12)C(=O)N[C@@H](Cc1c[nH]c2ccccc12)C(=O)N[C@@H](CCCCN)C(=O)N[C@@H](Cc1c[nH]c2ccccc12)C(=O)N[C@@H](CCCCN)C(=O)N[C@@H](Cc1c[nH]c2ccccc12)C(=O)O [C4] (H-WKWKWENGKWKWKW-OH) ; its MIC (μM) Gram-negative E. coli 12228 = 2 µM
